Each record here notes measured pIC50.
Target: Rat IL-23R_huFC (rat)
Test: rat ELISA vs IL-23
pIC50: −log10 of the molar value.

1. KXQTWQCFXKENG (not fully specified; as bracketed in name; thioether cyclo; PEG25 linker through α-MeLys) [[Ac-[(D)Lys]-Cyclo-[[Abu]-QTWQC]-[Phe(4-OMe)]-[2-Nal]-[α-MeLys]-ENG-NH2]2 PEG25] | 7.60 to 8.00

Now look at this one.
Record request: pIC50 value, item XQTWQCFXKENG (not fully specified; as bracketed in name; thioether cyclo; DIG linker through a-MeLys) [[Ac-Cyclo-[[Abu]-QTWQC]-[Phe(4-OMe)]-[2-Nal]-[α-MeLys+-ENG-NH2]2DIG]
7.60 to 8.00
